System: SN12C renal
Assay: NCI-60 one-dose screen, 48 h (100 = growth as untreated, 0 = no growth, -100 = all killed)
Details: 10 µM unless noted
The panel holds about 83,000 compounds, 20% with a hit somewhere; the sample as a whole holds those more often.
Please note: fulfilled applies when growth is 90% or greater, and not fulfilled applies otherwise.

Reference set, count: 5
Structure String	System Name	Assigned Label
COc1ccc(Oc2ccc(/C=C/C(=O)c3ccc(OC)c(OC)c3)cc2)cc1	SN12C renal	not fulfilled
CS(=O)(=O)c1ccc(-c2nc3ccccc3n2CC(=O)N/N=C/c2ccccc2)cc1	SN12C renal	fulfilled
COc1ccc(C(=O)/C=C/c2ccccc2)cc1S(N)(=O)=O	SN12C renal	not fulfilled
CCOC(=O)CC[C@H](NC(=O)c1ccc(N(C)Cc2cnc3nc(N)nc(N)c3n2)c2ccccc12)C(=O)OCC	SN12C renal	not fulfilled
CC(C)NS(=O)(=O)/N=C1\NC(=O)NC1=C(Cl)Cl	SN12C renal	fulfilled

Problem: In plain terms: is recorded growth at least 90% for COc1ccc(C(=O)Nc2ncc(Cc3ccc(Cl)cc3)s2)cc1 ?
Solution: not fulfilled

---

System: BT-549 breast
Assay: NCI-60 one-dose screen, 48 h
Conditions: 10 µM unless noted
About 83,000 compounds went through this panel and 20% of them were active in at least one assay; those are over-represented in the sample as a whole. Activity calls are given as the source filed them. How the source made its calls: active means growth percent below 10; inactive means the rest.
Use one of these outcomes when replying: active, inactive

Reference set, count: 4
Compound	Assigned Label
C=C1C(=O)O[C@H]2[C@H]1CC/C(COC(=O)NCc1ccc(Cn3c(=O)sn(-c4ccccc4)c3=O)cc1)=C\CC[C@@]1(C)O[C@@H]21	inactive
COc1ccc2cc(-c3nc4ccc(C)cn4c3NCc3ccco3)c(=O)[nH]c2c1	inactive
COC(=O)[C@]1(C)CCC[C@]2(C)[C@H]3C[C@@H]4[C@H]5[C@@H]6CC/C(=N\OCC/C(N)=N/O)[C@H]5[C@@]3(CC[C@H]21)CC4(C(C)C)O6	inactive
CN(C)c1ccc(CNCCO)cc1	inactive

Problem: Record lookup: outcome of this test for COCCn1cc(-c2csc(-c3c[nH]c4ccccc34)n2)c2cccnc21 ?
Solution: inactive

Problem: Record lookup: outcome of this test for CNC(=O)c1cc(Oc2ccc3c(c2)sc2nc(-c4cc(C(F)(F)F)cc(C(F)(F)F)c4)cn23)ccn1 ?
Solution: inactive

Problem: Record lookup: outcome of this test for COc1ccc(CN2C(=O)OC(C)(COC(C)=O)C2=O)cc1 (stereo not drawn) ?
Solution: inactive

Problem: Record lookup: outcome of this test for CC(C)(C)CC(C)(C)Nc1c(-c2c(O)c3ccccc3oc2=O)nc2sc3ccccc3n12 ?
Solution: inactive

Problem: Record lookup: outcome of this test for Cc1cc(Cl)nc(N2CCN(CCNc3ccnc4cc(Cl)ccc34)CC2)n1 ?
Solution: inactive

Problem: Record lookup: outcome of this test for COc1ccc2cc(C(=O)N3CCC([C@@H](C)C(=O)NCc4ccc5c(c4)OCO5)CC3)[nH]c2c1 ?
Solution: inactive

Problem: Record lookup: outcome of this test for C=C(C)[C@@H]1CC[C@]2(C(=O)Nc3ccccn3)CC[C@]3(C)[C@H](CC[C@@H]4[C@@]5(C)CCCNC(C)(C)[C@@H]5CC[C@]43C)[C@@H]12 ?
Solution: inactive

Problem: Record lookup: outcome of this test for Cc1ccc(C2CC(c3cccc(Nc4ccncc4)c3)=Nc3c(N)nc(N)nc3N2)cc1 (stereo not drawn) ?
Solution: inactive

Problem: Record lookup: outcome of this test for CN(C)c1ccc(/C=N\NC(=O)c2ccc3nc(-c4ccc(Cl)cc4)[nH]c3c2)cc1 ?
Solution: inactive

Problem: Record lookup: outcome of this test for OC1(c2ccccc2)c2ccccc2N(c2ccccc2)c2ccc(Cl)cc21 (stereo not drawn) ?
Solution: active

Problem: Record lookup: outcome of this test for CC(C)Cc1nc(Nc2ccccc2)[nH]c(=O)c1C#N ?
Solution: inactive

Problem: Record lookup: outcome of this test for CSc1ccc2c3c(n(C[C@H](O)CO)c(=O)c2c1)-c1ccccc1C3=O ?
Solution: inactive

Problem: Record lookup: outcome of this test for CN(C)C1CN(C(=O)c2cc(-c3ccc4ncnc(N5CCc6cc(F)c(Cl)cc65)c4c3)cnc2N)C1 ?
Solution: active

Problem: Record lookup: outcome of this test for C=CN(C(=O)N1CCN(c2cc3c(cc2F)c(=O)c(C(=O)O)cn3C2CC2)CC1)c1nc(-c2ccccc2)cs1 ?
Solution: inactive
